Experiment: absolute recovery over mixed-bed multilayer solid-phase extraction; higher = better recovery
Details: wastewater influent; enrichment method: SPE
The compounds listed here are annotated with their absolute recovery.
Express the result in % but write the number alone.

INSERT INTO measurements (compound, measured_metric, endpoint_value) VALUES
  ('Nc1ccc(S(=O)(=O)[N-]c2ccccn2)cc1 [Sulfapyridin]', 'absolute recovery', 96.2),
  ('CCOC(=O)C1=NOC(c2ccccc2)(c2ccccc2)C1 [Isoxadifen-ethyl]', 'absolute recovery', 62.5),
  ('CCOC(=O)Nc1cccc(OC(=O)Nc2ccccc2)c1 [Desmedipham D]', 'absolute recovery', 76.2),
  ('CCC1(c2cccc(O)c2)CCCC[NH+](C)C1 (stereo not given) [Meptazinol]', 'absolute recovery', 91.9);

Req: Report absolute recovery for Cn1sccc1=O [2-Methyl-4-isothiazolin-3-one] please.
Resp: 17

Req: Report absolute recovery for CCC[NH+](CC)CC1COC2(CCC(C(C)(C)C)CC2)O1 (stereo not given) [Spiroxamin] please.
Resp: 71.8

Req: Report absolute recovery for CC(C)c1nc(N(C)S(C)(=O)=O)nc(-c2ccc(F)cc2)c1C=CC(O)CC(O)CC(=O)[O-] (stereo not given) [Rosuvastatin] please.
Resp: 90.1

Req: Report absolute recovery for COCCN(C(=O)CCl)c1c(C)cccc1C [Dimethachlor] please.
Resp: 95.7

Req: Report absolute recovery for CC#Cc1cc(C)nc(Nc2ccccc2)n1 [Mepanipyrim] please.
Resp: 94.9

Req: Report absolute recovery for COC(=O)N(OC)c1ccccc1COc1ccn(-c2ccc(Cl)cc2)n1 [Pyraclostrobin] please.
Resp: 99.3

* * *

Assay: absolute recovery over mixed-bed multilayer solid-phase extraction; higher = better recovery
Conditions: nanopure water; enrichment method: SPE
The molecules listed here are annotated with their absolute recovery.
Express the result in % but write the number alone.

Take a look at these entries with their results.
INSERT INTO assay_data (molecule, endpoint_value) VALUES
  ('CC(C)[NH+](CCC(C(N)=O)(c1ccccc1)c1ccccn1)C(C)C (centres undefined) [Disopyramide]', 90),
  ('Nc1ccc(S(=O)(=O)[N-]c2ccccn2)cc1', 98.5),
  ('CNC(=O)ON=CC(C)(C)SC', 88.2);

--- query ---
Req: Report absolute recovery for O=c1[nH]c2c(c(=O)n1C1CCCCC1)CCC2 please.
Resp: 93.2

* * *

Assay: absolute recovery over mixed-bed multilayer solid-phase extraction; higher = better recovery
Settings: wastewater effluent; enrichment method: SPE
The molecules listed here are annotated with their absolute recovery.
Express the result in % but write the number alone.

Take a look at these entries with their results.
INSERT INTO assay_data (molecule, endpoint_value) VALUES
  ('N#Cc1c[nH]cc1-c1cccc2c1OC(F)(F)O2', 105),
  ('COCc1cnc(C2=NC(C)(C(C)C)C(=O)N2)c(C(=O)[O-])c1 (centres undefined)', 90.7),
  ('COc1ccc2c(c1OC)C(=O)OC2C1c2c(cc3c(c2OC)OCO3)CC[NH+]1C (centres undefined)', 91.8),
  ('CC(C)Nc1nc(N)nc(Cl)n1', 92.1),
  ('CCOC(=O)C1=CC(OC(CC)CC)C(NC(C)=O)C([NH3+])C1 (centres undefined)', 77.3),
  ('CNC(=O)Nc1ccc(Cl)c(Cl)c1', 102);

Req: Report absolute recovery for Cn1nnc2ccccc21 please.
Resp: 88.8

Req: Report absolute recovery for CCC1OC(=O)C(C)C(OC2CC(C)(OC)C(O)C(C)O2)C(C)C(OC2OC(C)CC([NH+](C)C)C2O)C(C)(O)CC(C)C(=O)C(C)C(O)C1(C)O (centres undefined) please.
Resp: 78.3

Req: Report absolute recovery for CC[N+]([O-])(CC)CC(=O)Nc1c(C)cccc1C [Lidocaine-N-Oxide] please.
Resp: 90.6
